Target: Protein mono-ADP-ribosyltransferase PARP12 (Homo sapiens, UniProt Q9H0J9)
Sequence (Q9H0J9 whole entry): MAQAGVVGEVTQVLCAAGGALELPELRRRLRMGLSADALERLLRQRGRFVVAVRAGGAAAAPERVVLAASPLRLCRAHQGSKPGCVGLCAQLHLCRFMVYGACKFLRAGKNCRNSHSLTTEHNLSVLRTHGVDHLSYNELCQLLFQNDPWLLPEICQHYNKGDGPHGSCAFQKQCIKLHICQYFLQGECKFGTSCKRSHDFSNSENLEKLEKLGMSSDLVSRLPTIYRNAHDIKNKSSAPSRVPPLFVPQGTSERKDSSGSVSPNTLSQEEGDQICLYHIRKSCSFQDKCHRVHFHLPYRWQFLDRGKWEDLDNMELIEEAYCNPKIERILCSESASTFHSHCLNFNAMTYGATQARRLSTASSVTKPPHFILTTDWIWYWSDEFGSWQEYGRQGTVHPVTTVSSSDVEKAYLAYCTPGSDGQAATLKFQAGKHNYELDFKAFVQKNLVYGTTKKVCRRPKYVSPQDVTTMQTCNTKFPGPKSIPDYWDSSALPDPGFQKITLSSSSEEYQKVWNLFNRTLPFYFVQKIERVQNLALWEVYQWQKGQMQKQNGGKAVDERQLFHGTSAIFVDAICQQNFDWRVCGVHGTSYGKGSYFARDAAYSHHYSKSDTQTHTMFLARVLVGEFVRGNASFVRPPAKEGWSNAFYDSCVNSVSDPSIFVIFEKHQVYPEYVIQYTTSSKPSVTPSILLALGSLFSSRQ
Reported endpoint: IC50

Please report the recorded IC50 for O=C(CCc1nc2ccccc2c(=O)[nH]1)Nc1ccc(C(=O)Nc2cccc3cccnc23)cc1 . > 100 µM

###

Molecular target: Poly [ADP-ribose] polymerase 2 (Homo sapiens, UniProt Q9UGN5)
Sequence (Q9UGN5 whole entry, the tested form may be a part): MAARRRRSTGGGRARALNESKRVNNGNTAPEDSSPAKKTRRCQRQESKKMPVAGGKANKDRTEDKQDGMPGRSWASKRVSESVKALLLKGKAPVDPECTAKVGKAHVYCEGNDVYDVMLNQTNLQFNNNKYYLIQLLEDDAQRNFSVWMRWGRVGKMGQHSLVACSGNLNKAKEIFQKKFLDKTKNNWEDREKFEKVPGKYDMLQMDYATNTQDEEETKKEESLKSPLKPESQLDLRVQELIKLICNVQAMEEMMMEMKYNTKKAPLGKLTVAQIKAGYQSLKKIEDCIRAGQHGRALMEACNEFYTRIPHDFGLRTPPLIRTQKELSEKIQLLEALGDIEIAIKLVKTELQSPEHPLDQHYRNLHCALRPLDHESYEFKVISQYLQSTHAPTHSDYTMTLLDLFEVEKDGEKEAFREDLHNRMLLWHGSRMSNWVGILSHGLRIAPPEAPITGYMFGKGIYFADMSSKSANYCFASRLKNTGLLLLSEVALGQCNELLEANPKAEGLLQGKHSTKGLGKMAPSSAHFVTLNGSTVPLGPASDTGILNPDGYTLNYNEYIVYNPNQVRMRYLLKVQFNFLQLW
Test: Inhibition of recombinant human N-terminal GST-tagged PARP2 (2 to 583 residues) expressed in baculovirus infected Sf9 cells measured after 1 hr by chemiluminescence assay
Parameter: pIC50. Scope: all listed entries.
The quantity pIC50 is defined as the negative base-10 logarithm of the molar concentration.

In the examples that follow, each entry is paired with its recorded pIC50.
Smiles representation	Reported endpoint	Value
O=C(O)CCc1nc(O)c2ccccc2n1	pIC50	6.90
Cc1cccc2c(=O)[nH]c(CCC(=O)Nc3ccc(C(=O)Nc4cccc5cccnc45)cc3)nc12	pIC50	4.94
O=C(CCc1nc2ccccc2c(=O)[nH]1)Nc1ccc(C(=O)Nc2cccc3cccnc23)cc1	pIC50	5.16

Consider the record given below.
Which pIC50 is listed for Cc1cccc2c(=O)[nH]c(CCC(=O)O)nc12 ? 6.84
